Assay: Plasma, brain and liver levels after oral gavage in C57BL/6 mice
Type: in vivo, mouse
Conditions: mouse, plasma, 35 mg/kg; C57BL/6 mice, oral gavage 35 mpk, 24 hr; read-out: Plasma conc
Excerpt: Below, we first report the experimental detail for preparation and isolation of Compound III, and then the biological, in vivo data is described.
EXPERIMENTAL_READOUT: concentration at 24 hr (nM)
One number for each entry, in nM.

[Q] Please look up its concentration at 24 hr: CCC[C@H]1C(=O)C(C)(C)[C@@H](O)CC(=O)O[C@H](/C(C)=C/c2csc(C)n2)CC=C(C)CCC[C@H](C)[C@@H]1O (single isomer, unassigned) [Compound III]
[A] 0.7

* * *

Test: Plasma, brain and liver levels after oral gavage in C57BL/6 mice
Type: in vivo, mouse
Conditions: mouse, brain, 10 mg/kg; C57BL/6 mice, oral gavage 10 mpk, 8 hr; read-out: Brain conc
EXPERIMENTAL_READOUT: concentration at 8 h (nM)
Give bare numbers, in nM.

[Q] Please look up its concentration at 8 h: C/C1=C/C[C@@H](/C(C)=C/c2csc(C)n2)OC(=O)C[C@H](O)C(C)(C)C(=O)[C@H](C)[C@@H](O)[C@@H](C)CCC1
[A] 6.4

* * *

Test: Plasma, brain and liver levels after oral gavage in C57BL/6 mice
Format: in vivo, mouse
Settings: mouse, brain, 35 mg/kg; C57BL/6 mice, oral gavage 35 mpk, 24 hr; read-out: Brain conc
EXPERIMENTAL_READOUT: concentration at 24 hr (nM)
Answers are plain numbers, in nM.

[Q] Please look up its concentration at 24 hr: C/C1=C/C[C@@H](/C(C)=C/c2csc(C)n2)OC(=O)C[C@H](O)C(C)(C)C(=O)[C@H](C)[C@@H](O)[C@@H](C)CCC1
[A] 118

* * *

Assay: Plasma, brain and liver levels after oral gavage in C57BL/6 mice
Assay type: in vivo, mouse
Settings: mouse, brain, 10 mg/kg; C57BL/6 mice, oral gavage 10 mpk, 1 hr; read-out: Brain conc
EXPERIMENTAL_READOUT: concentration at 1 h (nM)
Answers are plain numbers, in nM.

MOLECULE	concentration at 1 h [nM]
C/C1=C/C[C@@H](/C(C)=C/c2csc(C)n2)OC(=O)C[C@H](O)C(C)(C)C(=O)[C@H](C)[C@@H](O)[C@@H](C)CCC1	10.6

Would you kindly look at the next entry?
[Q] Please look up its concentration at 1 h: CCC[C@H]1C(=O)C(C)(C)[C@@H](O)CC(=O)O[C@H](/C(C)=C/c2csc(C)n2)CC=C(C)CCC[C@H](C)[C@@H]1O (single isomer, unassigned)
[A] 9.6

* * *

Experiment: in vivo
Settings: nude, mouse, iv, 4 mg/kg, Brain conc
EXPERIMENTAL_READOUT: concentration at 24 h (nM)
One number for each entry, in nM.

[Q] Please look up its concentration at 24 h: CC(=O)O[C@H]1C(=O)[C@@]2(C)[C@H]([C@H](OC(=O)c3ccccc3)[C@]3(O)C[C@H](OC(=O)[C@H](O)[C@@H](NC(=O)c4ccccc4)c4ccccc4)C(C)=C1C3(C)C)[C@]1(OC(C)=O)CO[C@@H]1C[C@@H]2O [Paclitaxel, paclitaxel]
[A] 15

* * *

Test: Plasma, brain and liver levels of epothilone D after bolus IV in triple transgenic mice
Type: in vivo, mouse
Conditions: triple transgenic (Oddo et al. 2003), mouse, plasma, 5 mg/kg, bolus IV 5 mpk, 16 hr, read-out: Plasma conc
EXPERIMENTAL_READOUT: concentration at 16 h (nM)
One number for each entry, in nM.

[Q] Please look up its concentration at 16 h: C/C1=C/C[C@@H](/C(C)=C/c2csc(C)n2)OC(=O)C[C@H](O)C(C)(C)C(=O)[C@H](C)[C@@H](O)[C@@H](C)CCC1 [Epothilone D, epothilone D]
[A] 0.8

* * *

Test: in vivo
Conditions: nude, mouse, iv, 4 mg/kg, Brain conc
EXPERIMENTAL_READOUT: concentration at 6 h
For clarity, give the value followed by its unit.

[Q] Please look up its concentration at 6 h: CC(=O)O[C@H]1C(=O)[C@@]2(C)[C@H]([C@H](OC(=O)c3ccccc3)[C@]3(O)C[C@H](OC(=O)[C@H](O)[C@@H](NC(=O)c4ccccc4)c4ccccc4)C(C)=C1C3(C)C)[C@]1(OC(C)=O)CO[C@@H]1C[C@@H]2O
[A] 16 nM

* * *

Assay: in vivo
Conditions: nude, mouse, iv, 12 mg/kg
EXPERIMENTAL_READOUT: Kp at 1 h
Give bare numbers.

[Q] Please look up its Kp at 1 h: C/C(=C\c1csc(C)n1)[C@@H]1C[C@@H]2O[C@]2(C)CCC[C@H](C)[C@H](O)[C@@H](C)C(=O)C(C)(C)[C@@H](O)CC(=O)N1 [Ixabepilone]
[A] 0.73

* * *

Assay: Brain half-life of epothilone D in rats
Assay type: in vivo
Details: 1 mg/kg, Rat, IV, 1 mpk
Text: To calculate an accurate brain half-life for a long half-life compound, measurements need to be taken for several half lives after a single dose.
EXPERIMENTAL_READOUT: half-life (h)
One number for each entry, in h.

[Q] Please look up its half-life: C/C1=C/C[C@@H](/C(C)=C/c2csc(C)n2)OC(=O)C[C@H](O)C(C)(C)C(=O)[C@H](C)[C@@H](O)[C@@H](C)CCC1 [Epothilone D, epothilone D]
[A] 31

* * *

Assay: Plasma, brain and liver levels after oral gavage in C57BL/6 mice
Format: in vivo, mouse
Details: mouse, plasma, 10 mg/kg; C57BL/6 mice, oral gavage 10 mpk, 5 hr; read-out: Plasma conc
EXPERIMENTAL_READOUT: concentration at 5 hr (nM)
Numbers only, in nM.

[Q] Please look up its concentration at 5 hr: CCC[C@H]1C(=O)C(C)(C)[C@@H](O)CC(=O)O[C@H](/C(C)=C/c2csc(C)n2)CC=C(C)CCC[C@H](C)[C@@H]1O (single isomer, unassigned)
[A] 1.3

* * *

Assay: Plasma, brain and liver levels after bolus IV administration in nude mice
Conditions: nude, mouse, in vivo, iv, 5 mg/kg, Plasma conc, bolus IV 5 mpk, 6 hr
EXPERIMENTAL_READOUT: concentration at 6 h (nM)
Give bare numbers, in nM.

[Q] Please look up its concentration at 6 h: C/C1=C/C[C@@H](/C(C)=C/c2csc(C)n2)OC(=O)C[C@H](O)C(C)(C)C(=O)[C@H](C)[C@@H](O)[C@@H](C)CCC1
[A] 6

* * *

Assay: Plasma, brain and liver levels after oral gavage in C57BL/6 mice
Type: in vivo, mouse
Conditions: mouse, plasma, 10 mg/kg; C57BL/6 mice, oral gavage 10 mpk, 13 hr; read-out: Plasma conc
EXPERIMENTAL_READOUT: concentration at 13 h
For clarity, give the value followed by its unit.

[Q] Please look up its concentration at 13 h: C/C1=C/C[C@@H](/C(C)=C/c2csc(C)n2)OC(=O)C[C@H](O)C(C)(C)C(=O)[C@H](C)[C@@H](O)[C@@H](C)CCC1 [Epothilone D, epothilone D]
[A] 0.1 nM

* * *

Assay: Plasma, brain and liver levels of epothilone D after bolus IV in triple transgenic mice
Format: in vivo, mouse
Details: mouse, liver, 5 mg/kg, bolus IV 5 mpk, 24 hr, below LLQ, read-out: liver levels
Source text: To calculate an accurate brain half-life for a long half-life compound, measurements need to be taken for several half lives after a single dose.
EXPERIMENTAL_READOUT: concentration at 24 h

[Q] Please look up its concentration at 24 h: C/C1=C/C[C@@H](/C(C)=C/c2csc(C)n2)OC(=O)C[C@H](O)C(C)(C)C(=O)[C@H](C)[C@@H](O)[C@@H](C)CCC1 [Epothilone D, epothilone D]
[A] < 49 nM
